- test: total protein half-life in vivo (active degradation + dilution); higher = more stable protein
- assay_setup: wild type E. coli NCM3722; growth: P-lim chemostat; doubling time 12 h
result_type: total protein half-life in vivo (h)
Write it as a number; the unit h goes unstated.

Entry under test: MIVAFCLYKYFPFGGLQRDFMRIASTVAARGHHVRVYTQSWEGDCPKAFELIQVPVKSHTNHGRNAEYYAWVQNHLKEHPADRVVGFNKMPGLDVYFAADVCYAEKVAQEKGFLYRLTSRYRHYAAFERATFEQGKSTKLMMLTDKQIADFQKHYQTEPERFQILPPGIYPDRKYSEQIPNSREIYRQKNGIKEQQNLLLQVGSDFGRKGVDRSIEALASLPESLRHNTLLFVVGQDKPRKFEALAEKLGVRSNVHFFSGRNDVSELMAAADLLLHPAYQEAAGIVLLEAITAGLPVLTTAVCGYAHYIADANCGTVIAEPFSQEQLNEVLRKALTQSPLRMAWAENARHYADTQDLYSLPEKAADIITGGLDG . Its total protein half-life in vivo was 12.2

---

- test: total protein half-life in vivo (active degradation + dilution); higher = more stable protein
- assay_setup: wild type E. coli NCM3722; growth: P-lim chemostat; doubling time 6 h
// reported total protein half-life in vivo per item
Write the numeric value and append its unit.

# query_sequence, total protein half-life in vivo
data = [
    ("MKYDTSELCDIYQEDVNVVEPLFSNFGGRASFGGQIITVKCFEDNGLLYDLLEQNGRGRVLVVDGGGSVRRALVDAELARLAVQNEWEGLVIYGAVRQVDDLEELDIGIQAMAAIPVGAAGEGIGESDVRVNFGGVTFFSGDHLYADNTGIILSEDPLDIE [P0A8R0]", "6.02 h"),
]

The recorded total protein half-life in vivo for entry MKTLILFSTRDGQTREIASYLASELKELGIQADVANVHRIEEPQWENYDRVVIGASIRYGHYHSAFQEFVKKHATRLNSMPSAFYSVNLVARKPEKRTPQTNSYARKFLMNSQWRPDRCAVIAGALRYPRYRWYDRFMIKLIMKMSGGETDTRKEVVYTDWEQVANFAREIAHLTDKPTLK [P0ACB4] equals 5.69 h

Kindly note the recorded total protein half-life in vivo for MSSNTFTLGTKSVNRLGYGAMQLAGPGVFGPPRDRHVAITVLREALALGVNHIDTSDFYGPHVTNQIIREALYPYSDDLTIVTKIGARRGEDASWLPAFSPAELQKAVHDNLRNLGLDVLDVVNLRVMMGDGHGPAEGSIEASLTVLAEMQQQGLVKHIGLSNVTPTQVAEARKIAEIVCVQNEYNIAHRADDAMIDALAHDGIAYVPFFPLGGFTPLQSSTLSDVAASLGATPMQVALAWLLQRSPNILLIPGTSSVAHLRENMAAEKLHLSEEVLSTLDGISRE , which is 6.44 h

---

- test: total protein half-life in vivo (active degradation + dilution); higher = more stable protein
- assay_setup: E. coli NCM3722 delta-smpB; growth: N-lim chemostat; doubling time 6 h
result_type: total protein half-life in vivo (h)
Return type: number; implicit unit h.

Take a look at these entries with their results.
# query_sequence, result_type, test_value
rows = [
    ("MKRYTPDFPEMMRLCEMNFSQLRRLLPRNDAPGETVSYQVANAQYRLTIVESTRYTTLVTIEQTAPAISYWSLPSMTVRLYHDAMVAEVCSSQQIFRFKARYDYPNKKLHQRDEKHQINQFLADWLRYCLAHGAMAIPVY [P0ADU7]", "total protein half-life in vivo", 2.25),
    ("MNEQSQAKSPEALRAMVAGTLANFQHPTLKHNLTTLKALHHVAWMDDTLHVELVMPFVWHSAFEELKEQCSAELLRITGAKAIDWKLSHNIATLKRVKNQPGINGVKNIIAVSSGKGGVGKSSTAVNLALALAAEGAKVGILDADIYGPSIPTMLGAENQRPTSPDGTHMAPIMSHGLATNSIGYLVTDDNAMVWRGPMASKALMQMLQETLWPDLDYLVLDMPPGTGDIQLTLAQNIPVTGAVVVTTPQDIALIDAKKGIVMFEKVEVPVLGIVENMSVHICSNCGHHEPIFGTGGAEKLAEKYHTQLLGQMPLHISLREDLDKGTPTVISRPESEFTAIYRQLADRVAAQLYWQGEVIPGEISFRAV [P0AF08]", "total protein half-life in vivo", 3.88),
    ("MQCALYDAGRCRSCQWIMQPIPEQLSAKTADLKNLLADFPVEEWCAPVSGPEQGFRNKAKMVVSGSVEKPLLGMLHRDGTPEDLCDCPLYPASFAPVFAALKPFIARAGLTPYNVARKRGELKYILLTESQSDGGMMLRFVLRSDTKLAQLRKALPWLHEQLPQLKVITVNIQPVHMAIMEGETEIYLTEQQALAERFNDVPLWIRPQSFFQTNPAVASQLYATARDWVRQLPVKHMWDLFCGVGGFGLHCATPDMQLTGIEIASEAIACAKQSAAELGLTRLQFQALDSTQFATAQGDVPELVLVNPPRRGIGKPLCDYLSTMAPRFIIYSSCNAQTMAKDIRELPGFRIERVQLFDMFPHTAHYEVLTLLVKQ", "total protein half-life in vivo", 4.32),
    ("MSDQQQPPVYKIALGIEYDGSKYYGWQRQNEVRSVQEKLEKALSQVANEPITVFCAGRTDAGVHGTGQVVHFETTALRKDAAWTLGVNANLPGDIAVRWVKTVPDDFHARFSATARRYRYIIYNHRLRPAVLSKGVTHFYEPLDAERMHRAAQCLLGENDFTSFRAVQCQSRTPWRNVMHINVTRHGPYVVVDIKANAFVHHMVRNIVGSLMEVGAHNQPESWIAELLAAKDRTLAAATAKAEGLYLVAVDYPDRYDLPKPPMGPLFLAD", "total protein half-life in vivo", 5.64),
]

Entry MKATSEELAIFVSVVESGSFSRAAEQLGQANSAVSRAVKKLEMKLGVSLLNRTTRQLSLTEEGERYFRRVQSILQEMAAAESEIMETRNTPRGLLRIDAATPVVLHFLMPLIKPFRERYPEVTLSLVSSETIINLIERKVDVAIRAGTLTDSSLRARPLFNSYRKIIASPDYISRYGKPETIDDLKQHICLGFTEPASLNTWPIARSDGQLHEVKYGLSSNSGETLKQLCLSGNGIACLSDYMIDKEIARGELVELMADKVLPVEMPFSAVYYSDRAVSTRIRAFIDFLSEHVKTAPGGAVREA , total protein half-life in vivo reported as 5.67

---

- test: total protein half-life in vivo (active degradation + dilution); higher = more stable protein
- assay_setup: wild type E. coli NCM3722; growth: N-lim chemostat; doubling time 12 h
result_type: total protein half-life in vivo (h)
Unit h implied. Number only.

Worked cases, total protein half-life in vivo given:
# query_sequence, total protein half-life in vivo [h]
measured = [
    ("MNIKGKALLAGCIALAFSNMALAEDIKVAVVGAMSGPVAQYGDQEFTGAEQAVADINAKGGIKGNKLQIVKYDDACDPKQAVAVANKVVNDGIKYVIGHLCSSSTQPASDIYEDEGILMITPAATAPELTARGYQLILRTTGLDSDQGPTAAKYILEKVKPQRIAIVHDKQQYGEGLARAVQDGLKKGNANVVFFDGITAGEKDFSTLVARLKKENIDFVYYGGYHPEMGQILRQARAAGLKTQFMGPEGVANVSLSNIAGESAEGLLVTKPKNYDQVPANKPIVDAIKAKKQDPSGAFVWTTYAALQSLQAGLNQSDDPAEIAKYLKANSVDTVMGPLTWDEKGDLKGFEFGVFDWHANGTATDAK [P0AD96]", 12.2),
    ("MVKVYAPASSANMSVGFDVLGAAVTPVDGALLGDVVTVEAAETFSLNNLGRFADKLPSEPRENIVYQCWERFCQELGKQIPVAMTLEKNMPIGSGLGSSACSVVAALMAMNEHCGKPLNDTRLLALMGELEGRISGSIHYDNVAPCFLGGMQLMIEENDIISQQVPGFDEWLWVLAYPGIKVSTAEARAILPAQYRRQDCIAHGRHLAGFIHACYSRQPELAAKLMKDVIAEPYRERLLPGFRQARQAVAEIGAVASGISGSGPTLFALCDKPETAQRVADWLGKNYLQNQEGFVHICRLDTAGARVLEN", 6.8),
]

Please find the next sequence below.
MAKVLVLYYSMYGHIETMARAVAEGASKVDGAEVVVKRVPETMPPQLFEKAGGKTQTAPVATPQELADYDAIIFGTPTRFGNMSGQMRTFLDQTGGLWASGALYGKLASVFSSTGTGGGQEQTITSTWTTLAHHGMVIVPIGYAAQELFDVSQVRGGTPYGATTIAGGDGSRQPSQEELSIARYQGEYVAGLAVKLNG [P0A8G6] has a reported total protein half-life in vivo of 9.99
